# Measurement description: label from the status in PepcDB records;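 also: failed if final PepcDB status was selected cloned or expressed and not failed if soluble or beyond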
Quantity name: protein production

• MKMTVVGFWGGFPEAGEATSGYLFEHDGFRLLVDCGSGVLAQLQKYITPSDIDAVVLSHYHHDHVADIGVLQYARLITSATKGQLPELPIYGHTFDENGFHSLTHEPHTKGIPYNPEETLQIGPFSISFLKTVHPVTCFAMRITAGNDIVVYSADSSYIPEFIPFTKDADLFICECNMYAHQEAAKAGHMNSTEVASIAKDANVKELLLTHLPHTGNPADLVTEAKQIFSGHITLAHSGYVWNS = not failed
• MDINKLKLTPDSSIKEALKIVGQERVRLGIIVDKKDKFLGVISDSNIRKALISGKTLKDSIKDIYTKNPITIKENTSKEQLLKISAKTDIYDFPVLDEKGQILSIKSISSLLKANPNSIIIMAGGLGSRLKELTKDTPKPMLKVGKKPILESIIQRLKNQNFENFIFCVNYKKQIIEDYFQKGQKFGVKISYIKERKKLGTAGALSLIKQEFKESFIVMNADILTELDFNALLKAHKKSKALMSVCVREFEQQIPYGVITQKQGFIENIEEKPTQKFLVSAGIYVLENEILNLIAKNEYLDMPELIKLVLQKGKVNTYIINDYWIDIGRPDEFLKANEDFKLEHHHHHH = not failed
